- Test system: KRAS-mutant PDC complex spheroid viability;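 further: viability read after seven days of compound exposure; 100% = DMSO vehicle-treated spheroids so lower means less viable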
- test.name: Anticancer human tumor 186277-243-T-J2-PDC patient-derived colon adenocarcinoma cell line growth inhibition [KRAS2]; active means viability on the fitted dose curve at most 10% of control; inactive means the rest
- measurement.parameters: second compound 1 µM; first compound 1 µM
Outcome codes: 1 for active, -1 for inactive

compound	qualitative.label
CC(=O)OC12COC1CC(O)C1(C)C(=O)C(O)C3=C(C)C(OC(=O)C(O)C(NC(=O)OC(C)(C)C)c4ccccc4)CC(O)(C(OC(=O)c4ccccc4)C21)C3(C)C (centres undefined) + C=CC(=O)N1CCN(c2nc(=O)n(-c3c(C)ccnc3C(C)C)c3nc(-c4c(O)cccc4F)c(F)cc23)C(C)C1	1
Cn1nccc1Nc1nccc(-c2cc3c(s2)C(C)(C)N(CCN2CCOCC2)C3=O)n1 + C=CC(=O)N1CCN(c2nc(=O)n(-c3c(C)ccnc3C(C)C)c3nc(-c4c(O)cccc4F)c(F)cc23)C(C)C1	-1
O=C(c1cc(Cc2n[nH]c(=O)c3ccccc23)ccc1F)N1CCN(C(=O)C2CC2)CC1 + CNCc1ccccc1-c1csc(C(C)Nc2nc(C)nc3cc(OC)c(OC)cc23)c1	-1
CC(=O)OC12COC1CC(O)C1(C)C(=O)C(O)C3=C(C)C(OC(=O)C(O)C(NC(=O)OC(C)(C)C)c4ccccc4)CC(O)(C(OC(=O)c4ccccc4)C21)C3(C)C (centres undefined) + C=CC(=O)N1CCN(c2nc(OCC3CCCN3C)nc3c2CCN(c2cccc4cccc(C)c24)C3)CC1CC#N	1
